# Tested System: T1, Lsb4, P32793
# T1 sequence (P32793 402-468, looked up): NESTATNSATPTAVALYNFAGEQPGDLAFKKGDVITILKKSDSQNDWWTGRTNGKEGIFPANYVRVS
# Experiment Description: SPOT array
# Condition Notes: median of control spots 397
Quantity: SPOT intensity

INSERT INTO results (binder, result_number) VALUES
  ('NVLRKILEIPLHSFS', 0);

A = LLIRWLILMPLVGSR
B = KTRLRPAFIQQLWSS
C = RKLRTVPGVPLIHLT
// query Output the entries ranked by SPOT intensity from maximum down to minimum. Provide your answer as the labels ordered per the instruction.
// result A, C, B

Origin of values: paper PMC2756588
